Sourced from the Human Domainome abundance scans (Beltran et al. 2025)

B1: Double-stranded RNA-binding protein Staufen homolog 1, residues 183 to 249; numbered along this chain, O95793 (parent)
chain: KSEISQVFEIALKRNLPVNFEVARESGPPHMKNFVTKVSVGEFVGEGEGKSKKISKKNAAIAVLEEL

# Variants of: B1
# Test: abundance fitness (aPCA) (normalised: wild type 0, dead -1); higher = more abundant; growth selection in yeast, the domain comes from the species named
# Test settings: Homo sapiens
Assign rule met to entries whose abundance fitness meets or exceeds -0.07; assign rule not met to the rest.

{"Sequence": "KSEISQVFEIALKRNLPVNFEVARESGPPHMKNFVTKVSVGEFVGEGEGKSKKISQKNAAIAVLEEL", "Label class": "rule not met"}
{"Sequence": "KSLISQVFEIALKRNLPVNFEVARESGPPHMKNFVTKVSVGEFVGEGEGKSKKISKKNAAIAVLEEL", "Label class": "rule not met"}
{"Sequence": "KSEISQVFEIALKRNLPVNFEVARESSPPHMKNFVTKVSVGEFVGEGEGKSKKISKKNAAIAVLEEL", "Label class": "rule not met"}
{"Sequence": "KSEISQVFEIALKRNLPVNFEVARESGPPHMKNFVTKVSVGEFVGEGEGKSKKISKKNAAIATLEEL", "Label class": "rule not met"}

Given the entry KSEISQVFEIALKRNLPVNFEVHRESGPPHMKNFVTKVSVGEFVGEGEGKSKKISKKNAAIAVLEEL , answer whether its abundance fitness meets or surpasses -0.07.
rule met

Given the entry KSEISQVFEIALKRNLPVNFEVARESGPPHMKNFVTKASVGEFVGEGEGKSKKISKKNAAIAVLEEL , answer whether its abundance fitness meets or surpasses -0.07.
rule not met

Given the entry KSEISQVFEIALKRNLPVNFEVARESGPPHMKNFVTKVSVGEFVGEGEGKSKKASKKNAAIAVLEEL , answer whether its abundance fitness meets or surpasses -0.07.
rule met

Given the entry KSEISQVFEIALKRNLPVNFEVARESGPPHMKHFVTKVSVGEFVGEGEGKSKKISKKNAAIAVLEEL , answer whether its abundance fitness meets or surpasses -0.07.
rule met
